- study.system: KRas G12C (Homo sapiens, UniProt P01116, C118S/C51S/C80L/G12C)
- method.notes: KRas G12C Modification Assay (LCMS detection of covalent adduct)
- Format: binding
- run.conditions: 5 μM compound, 3 hours
- Protocol: A 10 μL aliquot of each protein solution was then transferred to a 384 well microtiter plate. Initial compound stocks were generated at fifty times their desired final assay concentration in DMSO. […] Final data analysis was a multistep process in the Spotfire® data analysis software package. Briefly, each protein mass was calculated as a percent of the total signal of that sample, that percentage was then normalized to the percentage of signal of the protein in the absence of reactive compounds. […]
readout.type: POC (normalized percent of control, KRas G12C modification)

// solved cases for POC (normalized percent of control, KRas G12C modification) follow
| compound | result |
| --- | --- |
| C=CC(=O)N1CCN(c2nc(OCCCN3CCOCC3)nc3c2CCN(c2c(C(F)(F)F)ccc4[nH]ncc24)C3)CC1 [Example 180] | C (“C”>50% POC) |
| C=CC(=O)N1CCN(c2nc(OC[C@@H]3CCCN3C)nc3c2CCN(c2c(C)ccc4[nH]ncc24)C3)CC1 [Example 155] | C (“C”>50% POC) |
| C=CC(=O)N1CCN(c2nc(OCCCN3CCOCC3)nc3c2CCN(c2cc(O)cc4sc(C)nc24)C3)CC1 [Example 166] | B (“B”>25% POC≤50% POC) |
| C=CC(=O)N1CCN(c2nc(OC[C@@H]3CCCN3C)nc3c2CCN(c2c(C)ccc4[nH]ncc24)C3)CC1CC#N (some centres unmarked) [Example 148] | C (“C”>50% POC) |
| C=CC(=O)N1CCN(c2nc(OCCCN3CCOCC3)nc3c2CCN(c2c(F)c(O)cc4ccccc24)C3)CC1 [Example 165] | C (“C”>50% POC) |
| C=CC(=O)N1CCN(c2nc(OC[C@@H]3CCCN3C)nc3c2CCN(c2c(C(F)(F)F)ccc4[nH]ncc24)C3)CC1CC#N (some centres unmarked) [Example 149] | B (“B”>25% POC≤50% POC) |
| C=CC(=O)N1CCN(c2nc(OCCN3CCC[C@@H](F)C3)nc3c2CCN(c2cc(O)cc4ccccc24)C3)CC1 [Example 207] | C (“C”>50% POC) |
| C=CC(=O)N1CCN(c2nc(OCCCN3CCOCC3)nc3c2CCN(c2cc(O)cc4cc(C)[nH]c24)C3)CC1 [Example 167] | B (“B”>25% POC≤50% POC) |

INPUT: Read off the recorded POC (normalized percent of control, KRas G12C modification) for C=CC(=O)N1CCN(c2nc(OC[C@@H]3CCCN3C)nc3c2CCN(c2c(F)c(O)cc4ccccc24)C3)CC1 [Example 249]
OUTPUT: C (“C”>50% POC)

INPUT: Read off the recorded POC (normalized percent of control, KRas G12C modification) for C=CC(=O)N1CCN(c2nc(OC[C@H]3CCCN3C)nc3c2CCN(c2cccc4ccccc24)C3)CC1CC#N (some centres unmarked) [Example 183]
OUTPUT: C (“C”>50% POC)

INPUT: Read off the recorded POC (normalized percent of control, KRas G12C modification) for C=CC(=O)N1CCN(c2nc(OC[C@@H]3C[C@@H](F)CN3C)nc3c2CCN(c2cccc4ccccc24)C3)CC1CC#N (some centres unmarked) [Example 220]
OUTPUT: C (“C”>50% POC)

INPUT: Read off the recorded POC (normalized percent of control, KRas G12C modification) for C=CC(=O)N1CCN(c2nc(OC[C@@H]3CCCN3C)nc3c2CCN(c2cc(O)cc4ccccc24)C3)CC1CC#N (some centres unmarked) [Example 182]
OUTPUT: C (“C”>50% POC)

INPUT: Read off the recorded POC (normalized percent of control, KRas G12C modification) for C=CC(=O)N1CCN(c2nc(OCCCN3C[C@@H](F)[C@@H](F)C3)nc3c2CCN(c2cc(O)cc4ccccc24)C3)CC1 [Example 208]
OUTPUT: C (“C”>50% POC)

INPUT: Read off the recorded POC (normalized percent of control, KRas G12C modification) for C=CC(=O)N1CCN(c2nc(OC[C@@H]3CCCN3C)nc3c2CCN(c2cccc4ccccc24)C3)C[C@@H]1CC#N [Example 234]
OUTPUT: C (“C”>50% POC)
